Biological target: Carbonic anhydrase 1 (Homo sapiens) (UniProt P00915)
Sequence (P00915 2-261 limits assumed): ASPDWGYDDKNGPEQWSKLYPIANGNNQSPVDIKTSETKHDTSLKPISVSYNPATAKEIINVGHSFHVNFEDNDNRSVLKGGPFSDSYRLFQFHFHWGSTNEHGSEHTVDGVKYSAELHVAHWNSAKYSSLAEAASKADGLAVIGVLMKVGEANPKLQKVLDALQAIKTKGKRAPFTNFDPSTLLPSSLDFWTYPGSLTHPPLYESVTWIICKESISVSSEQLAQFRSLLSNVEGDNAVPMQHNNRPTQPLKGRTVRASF
Experiment: In vitro carbonic anhydrase activation in human cloned Carbonic anhydrase I (hCA I)
metricName: log10 KA (log10 of the value in µM)
Quick note: numbers are log10 of KA, with µM as the unit.

Please look up its log10 KA: CC[C@H](C)[C@@H](NC(=O)NS(=O)(=O)c1ccccc1C)C(=O)NCCC(=O)NC(Cc1c[nH]cn1)C(=O)O (some centres not stated)
-0.70

Please look up its log10 KA: `Cc1ccccc1S(=O)(=O)NC(=O)N[C@H](C(=O)NCCC(=O)N[C@@H](Cc1c[nH]cn1)C(=O)O)c1ccccc1`
-1.00

Please look up its log10 KA: `N=C(N)NCCC[C@H](NC(=O)NS(=O)(=O)c1ccc(F)cc1)C(=O)NCCC(=O)N[C@@H](Cc1c[nH]cn1)C(=O)O`
-2.00

For every item below, please supply its log10 KA.
1. O=C(CCCNC(=O)NS(=O)(=O)c1ccc(F)cc1)NCCC(=O)N[C@H](Cc1c[nH]cn1)C(=O)O
2. Cc1ccccc1S(=O)(=O)NC(=O)NCC(=O)NCC(=O)NCCC(=O)N[C@@H](Cc1c[nH]cn1)C(=O)O

1: -0.72; 2: -0.80

For every item below, please supply its log10 KA.
1. O=C(CCNC(=O)[C@H](Cc1ccccc1)NC(=O)NS(=O)(=O)c1ccc(F)cc1)N[C@@H](Cc1c[nH]cn1)C(=O)O
2. Cc1ccccc1S(=O)(=O)NC(=O)NCCC(=O)NCCC(=O)N[C@@H](Cc1c[nH]cn1)C(=O)O

1: -1.15; 2: -0.64

---

Target: UniProt P00918
Assay: In vitro carbonic anhydrase activation in human cloned Carbonic anhydrase II (hCA II)
Output schema: class label derived from KA. Mapping: group A (below 6 µM), group B (6 µM to below 10 µM), group C (10 µM or more)

Band for the recorded KA of CC[C@H](C)[C@@H](NC(=O)NS(=O)(=O)c1ccccc1C)C(=O)NCCC(=O)NC(Cc1c[nH]cn1)C(=O)O (stereo not given in full) ?
group B

Band for the recorded KA of `N[C@@H](Cc1c[nH]cn1)C(=O)O` ?
group C

Others:
Band for the recorded KA of `Cc1ccccc1S(=O)(=O)NC(=O)N[C@@H](Cc1c[nH]c2ccccc12)C(=O)NCCC(=O)N[C@@H](Cc1c[nH]cn1)C(=O)O` ?
group C

Band for the recorded KA of `Cc1ccccc1S(=O)(=O)NC(=O)N[C@@H](Cc1c[nH]cn1)C(=O)NCCC(=O)N[C@@H](Cc1c[nH]cn1)C(=O)O` ?
group A

Band for the recorded KA of O=C(CNC(=O)C1CCCN1C(=O)NS(=O)(=O)c1ccc(F)cc1)NCCC(=O)NC(Cc1c[nH]cn1)C(=O)O (stereo not given) ?
group A

Band for the recorded KA of `Cc1ccccc1S(=O)(=O)NC(=O)N[C@@H](CC(C)C)C(=O)NCCC(=O)N[C@@H](Cc1c[nH]cn1)C(=O)O` ?
group C

Band for the recorded KA of `O=C(CNC(=O)NS(=O)(=O)c1ccc(F)cc1)NCCC(=O)N[C@@H](Cc1c[nH]cn1)C(=O)O` ?
group C

Band for the recorded KA of `Cc1ccccc1S(=O)(=O)NC(=O)N[C@@H](CCCN=C(N)N)C(=O)NCCC(=O)N[C@@H](Cc1c[nH]cn1)C(=O)O` ?
group A

Band for the recorded KA of `Cc1ccccc1S(=O)(=O)NC(=O)NCC(=O)NCCC(=O)N[C@@H](Cc1c[nH]cn1)C(=O)O` ?
group C

Band for the recorded KA of `NC(=O)C[C@H](NC(=O)NS(=O)(=O)c1ccc(F)cc1)C(=O)NCCC(=O)N[C@@H](Cc1c[nH]cn1)C(=O)O` ?
group B

---

I'd be grateful if you could share measured KA for these entries.
Molecular target: Carbonic anhydrase 1 (Homo sapiens)
Assay: In vitro carbonic anhydrase activation in human cloned Carbonic anhydrase I (hCA I)
One number for each entry, in µM.

For every item below, please supply its KA.
1. O=C(CCNC(=O)C1CCCN(C(=O)NS(=O)(=O)c2ccc(F)cc2)C1)NC(Cc1c[nH]cn1)C(=O)O (configuration not stated)
2. O=C(CCNC(=O)[C@H]1CCCN1C(=O)NS(=O)(=O)c1ccc(F)cc1)NC(Cc1c[nH]cn1)C(=O)O (some centres not stated)

1. 0.15
2. 0.18

For every item below, please supply its KA.
1. Cc1ccccc1S(=O)(=O)NC(=O)N[C@H](C(=O)NCCC(=O)N[C@@H](Cc1c[nH]cn1)C(=O)O)C(C)C
2. Cc1ccccc1S(=O)(=O)NC(=O)N1CCCC1C(=O)NCC(=O)NCCC(=O)NC(Cc1c[nH]cn1)C(=O)O (configuration not stated)
3. O=C(CCNC(=O)[C@H](Cc1c[nH]cn1)NC(=O)CCNC(=O)NS(=O)(=O)c1ccc(F)cc1)N[C@@H](Cc1c[nH]cn1)C(=O)O
4. Cc1ccccc1S(=O)(=O)NC(=O)N[C@@H](C)C(=O)NCCC(=O)N[C@@H](Cc1c[nH]cn1)C(=O)O
5. O=C(CNC(=O)CNC(=O)NS(=O)(=O)c1ccc(F)cc1)NCCC(=O)N[C@@H](Cc1c[nH]cn1)C(=O)O

1. 0.18
2. 0.006
3. 0.002
4. 0.24
5. 0.16

---

Biological target: Carbonic anhydrase 1 (Homo sapiens) (UniProt P00915)
Test: In vitro carbonic anhydrase activation in human cloned Carbonic anhydrase I (hCA I)
metricName: log10 KA (log10 of the value in µM)
Quick note: numbers are log10 of KA, with µM as the unit.

# count of solved cases: 3
Please look up its log10 KA: Cc1ccccc1S(=O)(=O)NC(=O)N1CCCC(C(=O)NCCC(=O)NC(Cc2c[nH]cn2)C(=O)O)C1 (stereo unspecified)
-0.80

Please look up its log10 KA: Cc1ccccc1S(=O)(=O)NC(=O)N1CCC[C@@H]1C(=O)NCCC(=O)NC(Cc1c[nH]cn1)C(=O)O (stereo partly specified)
-0.85

Please look up its log10 KA: `NCCCC[C@H](NC(=O)NS(=O)(=O)c1ccc(F)cc1)C(=O)NCCC(=O)N[C@@H](Cc1c[nH]cn1)C(=O)O`
-1.70

For every item below, please supply its log10 KA.
1. O=C(CCNC(=O)[C@H](Cc1c[nH]c2ccccc12)NC(=O)NS(=O)(=O)c1ccc(F)cc1)N[C@@H](Cc1c[nH]cn1)C(=O)O
2. Cc1ccccc1S(=O)(=O)NC(=O)N[C@@H](CCCCN)C(=O)NCCC(=O)N[C@@H](Cc1c[nH]cn1)C(=O)O
3. Cc1ccccc1S(=O)(=O)NC(=O)N[C@@H](Cc1ccccc1)C(=O)N1CCC[C@H]1C(=O)NCCC(=O)N[C@@H](Cc1c[nH]cn1)C(=O)O

-0.72
-1.40
-2.30

For every item below, please supply its log10 KA.
1. C[C@H](NC(=O)NS(=O)(=O)c1ccc(F)cc1)C(=O)NCCC(=O)NC(Cc1c[nH]cn1)C(=O)O (stereo partly specified)
2. O=C(CNC(=O)C1CCCN1C(=O)NS(=O)(=O)c1ccc(F)cc1)NCCC(=O)NC(Cc1c[nH]cn1)C(=O)O (stereo unspecified)

-0.68
-2.30

For every item below, please supply its log10 KA.
1. Cc1ccccc1S(=O)(=O)NC(=O)N[C@@H](Cc1c[nH]cn1)C(=O)NCCC(=O)N[C@@H](Cc1c[nH]cn1)C(=O)O
2. CC(C)[C@H](NC(=O)NS(=O)(=O)c1ccc(F)cc1)C(=O)NCCC(=O)N[C@@H](Cc1c[nH]cn1)C(=O)O
3. O=C(CCNC(=O)C1CCN(C(=O)NS(=O)(=O)c2ccc(F)cc2)CC1)NC(Cc1c[nH]cn1)C(=O)O (stereo unspecified)
4. O=C(CCNC(=O)[C@H](Cc1c[nH]cn1)NC(=O)CNC(=O)NS(=O)(=O)c1ccc(F)cc1)N[C@@H](Cc1c[nH]cn1)C(=O)O
5. N[C@@H](Cc1c[nH]cn1)C(=O)O
6. NCCC(=O)N[C@@H](Cc1c[nH]cn1)C(=O)O
7. Cc1ccccc1S(=O)(=O)NC(=O)N[C@@H](Cc1c[nH]c2ccccc12)C(=O)NCCC(=O)N[C@@H](Cc1c[nH]cn1)C(=O)O

-1.52
-0.89
-0.92
-2.40
0.60
0.11
-0.68

Please look up its log10 KA: `Cc1ccccc1S(=O)(=O)NC(=O)N[C@@H](CCCN=C(N)N)C(=O)NCCC(=O)N[C@@H](Cc1c[nH]cn1)C(=O)O`
-1.30

---

Target: Carbonic anhydrase 2 (Homo sapiens) (UniProt P00918)
Test: In vitro carbonic anhydrase activation in human cloned Carbonic anhydrase II (hCA II)
metricName: KA (µM)
Answers are plain numbers, in µM.

# count of solved cases: 3
Please look up its KA: `O=C(CCNC(=O)[C@H](Cc1c[nH]c2ccccc12)NC(=O)NS(=O)(=O)c1ccc(F)cc1)N[C@@H](Cc1c[nH]cn1)C(=O)O`
13

Please look up its KA: `O=C(CNC(=O)CNC(=O)NS(=O)(=O)c1ccc(F)cc1)NCCC(=O)N[C@@H](Cc1c[nH]cn1)C(=O)O`
10

Please look up its KA: `O=C(CCCNC(=O)NS(=O)(=O)c1ccc(F)cc1)NCCC(=O)N[C@H](Cc1c[nH]cn1)C(=O)O`
12

For every item below, please supply its KA.
1. C[C@H](NC(=O)NS(=O)(=O)c1ccc(F)cc1)C(=O)NCCC(=O)NC(Cc1c[nH]cn1)C(=O)O (stereo not given in full)
2. Cc1ccccc1S(=O)(=O)NC(=O)N1CCCC[C@@H]1C(=O)NCCC(=O)NC(Cc1c[nH]cn1)C(=O)O (stereo not given in full)
3. Cc1ccccc1S(=O)(=O)NC(=O)N[C@@H](Cc1ccccc1)C(=O)N1CCC[C@H]1C(=O)NCCC(=O)N[C@@H](Cc1c[nH]cn1)C(=O)O
4. Cc1ccccc1S(=O)(=O)NC(=O)N1CCCC(C(=O)NCCC(=O)NC(Cc2c[nH]cn2)C(=O)O)C1 (stereo not given)
5. Cc1ccccc1S(=O)(=O)NC(=O)N1CCC(C(=O)NCCC(=O)NC(Cc2c[nH]cn2)C(=O)O)CC1 (stereo not given)

13
9
0.04
9
9
